Below, each of the sequences is paired with its reported binding signal value.
# tested_system: GST-Ap-NF-kB RHD (Exaiptasia pallida (Aiptasia), UniProt A0A913YAJ5 2-422)
# Sequence: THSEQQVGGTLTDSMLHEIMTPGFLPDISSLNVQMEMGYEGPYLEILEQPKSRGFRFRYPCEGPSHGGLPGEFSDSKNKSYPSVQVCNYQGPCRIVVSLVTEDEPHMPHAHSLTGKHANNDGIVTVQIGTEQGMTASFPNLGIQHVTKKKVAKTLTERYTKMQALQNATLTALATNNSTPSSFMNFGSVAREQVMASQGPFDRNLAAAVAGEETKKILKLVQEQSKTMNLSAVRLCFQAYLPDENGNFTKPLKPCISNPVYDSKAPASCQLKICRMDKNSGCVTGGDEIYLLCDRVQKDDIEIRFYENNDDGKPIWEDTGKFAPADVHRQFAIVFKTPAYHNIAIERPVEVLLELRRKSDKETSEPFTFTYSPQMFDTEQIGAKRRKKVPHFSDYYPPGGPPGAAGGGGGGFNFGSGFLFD
# protocol_details: protein-binding microarray (PBM); PBM: ~300 nM protein, 6 mM HEPES pH 7.8, 80 mM KCl, 0.5 mM EDTA, 0.5 mM EGTA, 6% glycerol, 35 ng/ul poly-dIdC, 1% milk, 1 h, room temperature; high values mean tight binding
# condition_description: dsDNA, one strand shown
Give the value in z-score but do not write z-score after it.

Test item CCGATTAACATCAGGGGAAGACCTGATGTTAATCGGGTCTTGATTCGCTTGACGCTGCTG ; GST-Ap-NF-kB RHD (Exaiptasia pallida (Aiptasia), UniProt A0A913YAJ5 2-422); reported binding signal was 5.91

Test item CCGATTAACATCACGGGATCCCCTGATGTTAATCGGGTCTTGATTCGCTTGACGCTGCTG ; GST-Ap-NF-kB RHD (Exaiptasia pallida (Aiptasia), UniProt A0A913YAJ5 2-422); reported binding signal was 7.35

Test item CCGATTAACATCAGGGGGTTCACTGATGTTAATCGGGTCTTGATTCGCTTGACGCTGCTG ; GST-Ap-NF-kB RHD (Exaiptasia pallida (Aiptasia), UniProt A0A913YAJ5 2-422); reported binding signal was 5.94

Test item CCGATTAACATCAGGGGGGTTAATGATGTTAATCGGGTCTTGATTCGCTTGACGCTGCTG ; GST-Ap-NF-kB RHD (Exaiptasia pallida (Aiptasia), UniProt A0A913YAJ5 2-422); reported binding signal was 4.64

Test item CCGATTAACATCAAAACATCCCCTGATGTTAATCGGGTCTTGATTCGCTTGACGCTGCTG ; GST-Ap-NF-kB RHD (Exaiptasia pallida (Aiptasia), UniProt A0A913YAJ5 2-422); reported binding signal was 6.41

Test item CCGATTAACATCAGATTTCTCCCTGATGTTAATCGGGTCTTGATTCGCTTGACGCTGCTG ; GST-Ap-NF-kB RHD (Exaiptasia pallida (Aiptasia), UniProt A0A913YAJ5 2-422); reported binding signal was 1.96

Test item CCGATTAACATCAGGGGGGTGGATGATGTTAATCGGGTCTTGATTCGCTTGACGCTGCTG ; GST-Ap-NF-kB RHD (Exaiptasia pallida (Aiptasia), UniProt A0A913YAJ5 2-422); reported binding signal was 4.23

Test item CCGATTAACATCATGTATGCCCCTGATGTTAATCGGGTCTTGATTCGCTTGACGCTGCTG ; GST-Ap-NF-kB RHD (Exaiptasia pallida (Aiptasia), UniProt A0A913YAJ5 2-422); reported binding signal was 1.68

Test item CCGATTAACATCAGGGAATGCACTGATGTTAATCGGGTCTTGATTCGCTTGACGCTGCTG ; GST-Ap-NF-kB RHD (Exaiptasia pallida (Aiptasia), UniProt A0A913YAJ5 2-422); reported binding signal was 1.84

Test item CCGATTAACATCAGGGAAAGGAATGATGTTAATCGGGTCTTGATTCGCTTGACGCTGCTG ; GST-Ap-NF-kB RHD (Exaiptasia pallida (Aiptasia), UniProt A0A913YAJ5 2-422); reported binding signal was 1.83

Test item CCGATTAACATCAAACTACCCCCTGATGTTAATCGGGTCTTGATTCGCTTGACGCTGCTG ; GST-Ap-NF-kB RHD (Exaiptasia pallida (Aiptasia), UniProt A0A913YAJ5 2-422); reported binding signal was 5.45

Test item CCGATTAACATCAGGGAATTCACTGATGTTAATCGGGTCTTGATTCGCTTGACGCTGCTG ; GST-Ap-NF-kB RHD (Exaiptasia pallida (Aiptasia), UniProt A0A913YAJ5 2-422); reported binding signal was 4.74

Test item CCGATTAACATCACGTATTTCCCTGATGTTAATCGGGTCTTGATTCGCTTGACGCTGCTG ; GST-Ap-NF-kB RHD (Exaiptasia pallida (Aiptasia), UniProt A0A913YAJ5 2-422); reported binding signal was 3.32

Test item CCGATTAACATCACTTGGGAAACTGATGTTAATCGGGTCTTGATTCGCTTGACGCTGCTG ; GST-Ap-NF-kB RHD (Exaiptasia pallida (Aiptasia), UniProt A0A913YAJ5 2-422); reported binding signal was 1.38

Test item CCGATTAACATCACGTTATTCCCTGATGTTAATCGGGTCTTGATTCGCTTGACGCTGCTG ; GST-Ap-NF-kB RHD (Exaiptasia pallida (Aiptasia), UniProt A0A913YAJ5 2-422); reported binding signal was 2.79

----------
Below, each of the sequences is paired with its reported binding signal value.
# tested_system: GST-Nv-NF-kB (Cys allele) (Nematostella vectensis, UniProt E5G601 2-411)
# Sequence: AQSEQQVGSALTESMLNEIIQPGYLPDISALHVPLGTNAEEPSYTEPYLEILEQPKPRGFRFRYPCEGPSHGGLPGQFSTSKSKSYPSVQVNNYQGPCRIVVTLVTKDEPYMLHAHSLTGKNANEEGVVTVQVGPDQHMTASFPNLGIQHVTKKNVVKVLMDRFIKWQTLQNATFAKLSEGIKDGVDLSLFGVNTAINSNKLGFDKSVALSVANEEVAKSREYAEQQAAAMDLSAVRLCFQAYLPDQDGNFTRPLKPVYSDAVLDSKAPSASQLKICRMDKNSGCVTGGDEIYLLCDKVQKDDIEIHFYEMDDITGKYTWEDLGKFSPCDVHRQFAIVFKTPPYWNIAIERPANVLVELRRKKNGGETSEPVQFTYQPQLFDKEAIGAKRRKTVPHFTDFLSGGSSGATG
# protocol_details: protein-binding microarray (PBM); PBM: ~300 nM protein, 6 mM HEPES pH 7.8, 80 mM KCl, 0.5 mM EDTA, 0.5 mM EGTA, 6% glycerol, 35 ng/ul poly-dIdC, 1% milk, 1 h, room temperature; high values mean tight binding
# condition_description: dsDNA, one strand shown
Give the value in z-score but do not write z-score after it.

Consider the reported binding signal for these sequences:
sequence_entry: CCGATTAACATCAAGGGGGGTAATGATGTTAATCGGGTCTTGATTCGCTTGACGCTGCTG
scale_unit: z-score
binding signal: 4.87
--
sequence_entry: CCGATTAACATCAGGGAAAGTAATGATGTTAATCGGGTCTTGATTCGCTTGACGCTGCTG
scale_unit: z-score
binding signal: 4.93

The sequence listed as CCGATTAACATCAGGGGGGGACATGATGTTAATCGGGTCTTGATTCGCTTGACGCTGCTG has a reported binding signal of 5.09

----------
# tested_system: GST-Nv-NF-kB (Ser allele) (Nematostella vectensis, UniProt A7UNT2 2-411)
# Sequence: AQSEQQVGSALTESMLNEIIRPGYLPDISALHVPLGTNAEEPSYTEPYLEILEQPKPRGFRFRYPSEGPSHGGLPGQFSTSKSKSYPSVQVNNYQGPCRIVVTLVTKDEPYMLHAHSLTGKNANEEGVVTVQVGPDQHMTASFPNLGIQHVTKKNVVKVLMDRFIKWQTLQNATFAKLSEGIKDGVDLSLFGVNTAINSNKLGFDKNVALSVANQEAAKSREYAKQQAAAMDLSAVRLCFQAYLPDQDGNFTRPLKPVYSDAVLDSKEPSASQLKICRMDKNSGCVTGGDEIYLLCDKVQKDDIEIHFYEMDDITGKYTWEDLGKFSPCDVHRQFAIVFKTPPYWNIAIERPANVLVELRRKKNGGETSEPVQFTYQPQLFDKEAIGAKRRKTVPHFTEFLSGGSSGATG
# protocol_details: protein-binding microarray (PBM); PBM: ~300 nM protein, 6 mM HEPES pH 7.8, 80 mM KCl, 0.5 mM EDTA, 0.5 mM EGTA, 6% glycerol, 35 ng/ul poly-dIdC, 1% milk, 1 h, room temperature; Ap Aiptasia and Nv Nematostella (sea anemones) / Co Capsaspora / Aq Amphimedon (sponge) / Dm Drosophila / Hu human; RHD is the Rel homology domain; high values mean tight binding
# condition_description: dsDNA, one strand shown
Flag rule - binding signal less than 3 z-score flags Criterion met; the remaining entries get Criterion not met.

# count of solved cases: 2
sequence_entry: CCGATTAACATCAGGGAAACCCCTGATGTTAATCGGGTCTTGATTCGCTTGACGCTGCTG
tested_system: GST-Nv-NF-kB (Ser allele) (Nematostella vectensis, UniProt A7UNT2 2-411)
assigned_label: Criterion not met

sequence_entry: CCGATTAACATCAGGGGAACTACTGATGTTAATCGGGTCTTGATTCGCTTGACGCTGCTG
tested_system: GST-Nv-NF-kB (Ser allele) (Nematostella vectensis, UniProt A7UNT2 2-411)
assigned_label: Criterion not met

[in] Problem: For the sequence CCGATTAACATCAAAAATTACCCTGATGTTAATCGGGTCTTGATTCGCTTGACGCTGCTG , is binding signal under 3 z-score?
[out] Criterion not met

[in] Problem: For the sequence CCGATTAACATCAGGGATTGCCCTGATGTTAATCGGGTCTTGATTCGCTTGACGCTGCTG , is binding signal under 3 z-score?
[out] Criterion met

[in] Problem: For the sequence CCGATTAACATCAAAAATCCCGGTGATGTTAATCGGGTCTTGATTCGCTTGACGCTGCTG , is binding signal under 3 z-score?
[out] Criterion not met

[in] Problem: For the sequence CCGATTAACATCAGGAAGTTACCTGATGTTAATCGGGTCTTGATTCGCTTGACGCTGCTG , is binding signal under 3 z-score?
[out] Criterion met
